Attribution: patent US11407715B2

Test system: DENV-4 strain H241
Assay: Tetravalent RT-qPCR assay, serotype 4
Type: cell-based, Dengue virus
Conditions: Dengue virus, DENV4, Vero, RT-qPCR serotype 4 H241, Vero cells
READOUT_TYPE: EC50 (nM)
Give bare numbers, in nM.

Worked cases, EC50 given:
{"columns": ["COMPOUND", "EC50 [nM]"],
 "data": [
  ["COc1cc(NC(C(=O)N2CCc3cc(OC)c(Cl)cc32)c2ccc(Cl)cc2)cc(OC2CC(C(=O)O)C2)c1 (single isomer, unassigned) [Compound 32B]", 10],
  ["COc1cc(NC(C(=O)N2CCc3ccc(OC(F)(F)F)cc32)c2ccc(Cl)cc2)cc(OCCC(=O)O)c1 (single isomer, unassigned) [Compound 12B]", 39],
  ["COc1cc(NC(C(=O)N2CCc3ccc(OC(F)(F)F)cc32)c2ccc(Cl)cc2)cc(OCCCCC(=O)O)c1 (single isomer, unassigned) [Compound 13B]", 15]
]}

For each entry beneath this line, provide reported EC50.
1. COc1cc(NC(C(=O)N2CCc3ccc(OC(F)(F)F)cc32)c2ccc(Cl)cc2)cc(OCCC(C)C(=O)O)c1 (single isomer, unassigned)
2. COc1cc(NC(C(=O)N2CCc3ccc(OC(F)(F)F)cc32)c2ccc(Cl)cc2)cc(OCC(C)CC(=O)O)c1 (single isomer, unassigned)
3. COc1cc(NC(C(=O)N2CCc3cc(OC)c(C(F)(F)F)cc32)c2ccc(Cl)cc2)cc(OC2CC(C(=O)O)C2)c1 (stereo not drawn) [Compound 23B]
4. COc1cc(NC(C(=O)N2CCc3cc(OC)c(C(F)(F)F)cc32)c2ccc(Cl)cc2)cc(OCC2CC(C(=O)O)C2)c1 (stereo not drawn) [Compound 24B]

[A]
[16, 15, 2.7, 66]

---

Test: in vitro
Details: African green monkey
READOUT_TYPE: CC50 (µM)
Answers are plain numbers, in µM.

Completed entries (count: 5):
{"columns": ["COMPOUND", "READOUT_TYPE", "ENDPOINT_VALUE"],
 "data": [
  ["COc1cc(NC(C(=O)N2CCc3ccc(OC(F)(F)F)cc32)c2ccc(Cl)cc2)cc(OCCC(C)(C)C(=O)O)c1 (single isomer, unassigned) [Compound 2A]", "CC50", 13],
  ["COc1cc(NC(C(=O)N2CCc3cc(F)c(OC(F)(F)F)cc32)c2ccc(Cl)cc2)cc(OC2CC(C(=O)O)C2)c1 (stereo not drawn) [Compound 27]", "CC50", 13],
  ["COc1cc(NC(C(=O)N2CCc3ccc(OC(F)(F)F)cc32)c2ccc(Cl)cc2)cc(OCC(C)CC(=O)O)c1 (single isomer, unassigned) [Compound 4A]", "CC50", 9],
  ["COc1cc(NC(C(=O)N2CCc3ccc(OC(F)(F)F)cc32)c2ccc(Cl)cc2)cc(OCC2(CC(=O)O)CC2)c1 (single isomer, unassigned) [Compound 5A]", "CC50", 12],
  ["COc1cc(NC(C(=O)N2CCc3ccc(OC(F)(F)F)cc32)c2ccc(Cl)cc2)cc(OCC(C)CC(=O)O)c1 (racemic) [Compound 4]", "CC50", 10]
]}

// below: CC50 requested for another compound
[Q] What value of CC50 has been reported for the following compound? COc1cc(NC(C(=O)N2CCc3ccc(OC(F)(F)F)cc32)c2ccc(Cl)cc2OC)cc(OCCC(C)C(=O)O)c1 (racemic) [Compound 17]
[A] 13
